Assay Info: Mouse brain tissue binding
Format: in vitro ADME
Condition Set: mouse, brain tissue, read-out: fu
Measured Quantity: fraction unbound
Answers are plain numbers.

Param item = COc1ccc2[nH]cc(CCN3CCCC3)c2c1F ; retrieve measured fraction unbound.
0.175

====

Assay Info: Human plasma protein binding
Type: in vitro ADME
Condition Set: human, plasma, read-out: fu
Measured Quantity: fraction unbound
Answers are plain numbers.

Param item = COc1ccc2[nH]cc(CCN3CCCC3)c2c1F ; retrieve measured fraction unbound.
0.74

====

Tested System: 5-HT1A (Homo sapiens, UniProt P08908)
Sequence (P08908 whole entry): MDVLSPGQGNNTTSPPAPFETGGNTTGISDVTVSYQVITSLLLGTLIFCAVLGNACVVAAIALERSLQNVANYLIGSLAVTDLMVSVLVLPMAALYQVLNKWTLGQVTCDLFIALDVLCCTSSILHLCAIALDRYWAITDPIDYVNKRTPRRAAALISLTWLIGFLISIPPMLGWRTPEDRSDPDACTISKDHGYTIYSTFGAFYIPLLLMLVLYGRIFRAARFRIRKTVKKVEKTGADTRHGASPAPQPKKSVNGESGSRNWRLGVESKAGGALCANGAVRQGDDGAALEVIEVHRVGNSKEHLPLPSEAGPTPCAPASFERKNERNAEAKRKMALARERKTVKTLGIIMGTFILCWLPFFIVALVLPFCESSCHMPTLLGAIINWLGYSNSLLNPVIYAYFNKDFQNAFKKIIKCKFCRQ
Assay Info: BRET signaling assay: 5-HT1A-mediated activation of heterotrimeric Gi1 (TRUPATH, HEK293-T)
Condition Set: EC50 (nM), Gi1 BRET, 5-HT1A WT
Measured Quantity: EC50 (nM)
One number for each entry, in nM.

Recorded results for 3 molecules are shown here.
Param item = CSc1ccc2[nH]cc(CCN(C)C)c2c1 ; retrieve measured EC50.
11.7

Param item = CN(C)CCc1c[nH]c2ccc(O)c(F)c12 ; retrieve measured EC50.
1.13

Param item = COc1ccc2[nH]cc(CCN3CCCC3)c2c1 ; retrieve measured EC50.
2.13

Items follow; give EC50 for each.
1. CN(C)CCc1c[nH]c2ccc(O)cc12 [Bufotenine (5-OH-DMT), Bufotenine, reference compound]
2. CSc1ccc2[nH]cc(CCN3CCCC3)c2c1

1: 9.29; 2: 1.05
